Data provenance is paper PMC12673082.

# TARGET_OR_TEST_SYSTEM: mP2X7 (Mus musculus, UniProt Q9Z1M0)
# Sequence (Q9Z1M0 whole entry): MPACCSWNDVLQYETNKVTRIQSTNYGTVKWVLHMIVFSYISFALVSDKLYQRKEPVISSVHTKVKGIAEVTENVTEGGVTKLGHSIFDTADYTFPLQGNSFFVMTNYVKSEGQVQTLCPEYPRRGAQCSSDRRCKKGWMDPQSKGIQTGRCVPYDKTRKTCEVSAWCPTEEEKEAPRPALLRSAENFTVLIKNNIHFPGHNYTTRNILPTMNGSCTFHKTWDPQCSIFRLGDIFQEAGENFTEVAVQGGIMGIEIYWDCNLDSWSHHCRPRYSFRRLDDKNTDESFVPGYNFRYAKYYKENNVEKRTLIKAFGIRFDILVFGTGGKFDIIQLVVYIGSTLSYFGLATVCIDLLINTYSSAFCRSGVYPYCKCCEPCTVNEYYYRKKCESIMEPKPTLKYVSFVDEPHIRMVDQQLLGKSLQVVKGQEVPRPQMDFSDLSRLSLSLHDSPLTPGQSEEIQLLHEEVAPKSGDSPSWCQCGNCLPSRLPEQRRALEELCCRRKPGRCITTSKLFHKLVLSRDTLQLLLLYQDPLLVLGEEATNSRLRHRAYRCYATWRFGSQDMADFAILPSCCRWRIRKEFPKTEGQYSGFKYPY
# TEST_DETAILS: Whole-cell patch clamp, ATP-evoked current, transfected HEK293
# RECORDED_CONDITIONS: read-out: EC50 (apparent affinity for ATP); m7WT
OBSERVABLE: EC50 (µM)
Hi! Could you send only the number? It should be in µM, unit omitted.

Enquiry: Item Nc1ncnc2c1ncn2[C@@H]1O[C@H](COP(=O)(O)OP(=O)(O)OP(=O)(O)O)[C@@H](O)[C@H]1O [ATP, reference compound] has what recorded EC50?
Return: 782

---

# TARGET_OR_TEST_SYSTEM: hP2X7 V312A (Homo sapiens, UniProt Q99572, V312A)
# Sequence (Q99572 whole entry V312A): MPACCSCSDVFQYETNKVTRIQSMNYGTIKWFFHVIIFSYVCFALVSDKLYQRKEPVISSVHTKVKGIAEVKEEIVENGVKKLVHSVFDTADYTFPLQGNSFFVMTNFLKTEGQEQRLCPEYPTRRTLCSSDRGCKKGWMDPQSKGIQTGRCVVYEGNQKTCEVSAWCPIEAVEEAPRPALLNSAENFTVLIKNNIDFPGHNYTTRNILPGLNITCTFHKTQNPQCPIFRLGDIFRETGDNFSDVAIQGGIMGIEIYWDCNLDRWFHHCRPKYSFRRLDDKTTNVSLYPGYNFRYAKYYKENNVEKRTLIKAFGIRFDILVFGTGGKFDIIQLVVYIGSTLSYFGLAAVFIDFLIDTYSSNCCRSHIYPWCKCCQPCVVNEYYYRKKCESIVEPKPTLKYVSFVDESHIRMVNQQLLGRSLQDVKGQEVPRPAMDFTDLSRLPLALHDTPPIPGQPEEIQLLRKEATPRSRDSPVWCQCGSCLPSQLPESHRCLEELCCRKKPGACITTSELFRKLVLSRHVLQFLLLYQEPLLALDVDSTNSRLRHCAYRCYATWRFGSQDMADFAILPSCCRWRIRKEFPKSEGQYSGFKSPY
# TEST_DETAILS: Whole-cell patch clamp, hP2X7 mutant
OBSERVABLE: IC50

Enquiry: Item COc1ccc2cc3[n+](cc2c1OC)CCc1cc2c(cc1-3)OCO2 [berberine] has what recorded IC50?
Return: > 300 µM
